# assay explanation: NCI Yeast Anticancer Drug Screen. Data for the mec2-1 strain (AID 157)
# test settings: S. cerevisiae mec2-1 strain, at 50.0 µM, active compounds read high
About 79,000 compounds went through this panel and 15% of them were active in at least one assay; those are over-represented in the sample as a whole.
result type: growth inhibition (%)
Write the value in % as a bare number.

Could you share which growth inhibition value was measured for `O=C(/C=C/c1ccc(O)cc1)c1cc(O)cc(O)c1` ?
5.05

For the compound shown here, `O=C(O)c1ccc(SSc2ccc(C(=O)O)cn2)nc1` , give the reported growth inhibition.
19.1

I am curious: what growth inhibition value has been reported for COc1ccc2c(c1)C1(C)CCC(=O)C(C)=C1CC2 (centres undefined) ?
-3.95

Could you share which growth inhibition value was measured for O=S(=O)(OCCCC1CC2C=CC1C2)c1ccc(Br)cc1 (centres undefined) ?
-12.2

###

# assay explanation: NCI Yeast Anticancer Drug Screen. Data for the bub3 strain (AID 167)
# test settings: S. cerevisiae bub3 mutant strain, at 50.0 µM, active compounds read high
About 79,000 compounds went through this panel and 15% of them were active in at least one assay; those are over-represented in the sample as a whole. Calls of active or inactive are those of the source. Rule as the data show it: active = growth inhibition above about 70%; inactive = the rest.
result type: growth inhibition

Given the compound `O=S1(=O)CS(=O)(=O)OCCO1` , what is its reported growth inhibition?
10.7% (inactive)

GET /values?readout=growth inhibition&item= CC(O)(CNS(=O)(=O)c1ccccc1)c1ccccc1 (centres undefined)
-31.2% (inactive)

Report growth inhibition for `CC1=C(C(=O)NCCc2ccccc2)CC(C(=O)NCCc2ccccc2)=C(C)N1` please.
-13.2% (inactive)

Entry `CC(/C=N/Nc1ccccc1)=N\N=c1/scc(-c2ccc(Cl)cc2)n1-c1ccc(Cl)cc1` : reported growth inhibition = ?
11.1% (inactive)

###

# assay explanation: NCI Yeast Anticancer Drug Screen. Data for the rad50 strain (AID 155);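 further: 0% = growth of vehicle-only cultures of the same strain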
# test settings: S. cerevisiae rad50 strain growth inhibition; at 50.0 µM; active compounds read high
The panel holds about 79,000 compounds, 15% with a hit somewhere; the sample as a whole holds those more often.
result type: growth inhibition (%)
Entry rule: numbers only, all in %.

Using the record for CCC(C)OC(=Nc1ccccc1)c1ccccc1 (stereo unspecified) , report its growth inhibition.
-4.05

# query: growth inhibition of entry COc1ccc(C(C#N)C(=O)CCC(=O)C(C#N)c2ccc(OC)c(OC)c2)cc1OC (stereo unspecified)
28.3

I am curious: what growth inhibition value has been reported for `O=S(=O)(Cl)c1c(F)c(F)c(F)c(F)c1F` ?
-31.3

For the molecule shown here, CCOC(=O)C12CCC(=O)C=C1[C@@H](C)C(=O)CC2 (stereo partly specified) , give the reported growth inhibition.
-20.1

Give its growth inhibition value. Item: CCCCCC1(C=O)C(=O)NC(=O)N1C (stereo unspecified)
2.25

For the molecule CC(C)C1=CC23CCC4C(C)(C(=O)O)CCCC4(C)C2CC1C1C(=O)N(c2ccccc2)C(=O)C13 (stereo unspecified) , what growth inhibition is on record?
-7.45

Query (molecule): CCOC(=O)C(CC(C)C)NC(=O)c1cnc2ccccc2c1 (stereo unspecified) ; field requested: growth inhibition
26.6

GET /values?readout=growth inhibition&item= `C/C(CC/C(C)=N/O)=N\O`
6.4

Bench note: what growth inhibition did `CCCCOC(=O)NC(=O)c1cc2cc(I)cc(I)c2oc1=O` show?
3.45

Record request: growth inhibition value, item `CCOC(=O)NN(C(=O)OCC)c1c(NC)n(C)c(=O)n(C)c1=O`
-23.4

Please look up its growth inhibition: `COC(=O)CC(=O)c1cccc([N+](=O)[O-])c1`
8.95

Return reported growth inhibition; argument: `CCCCN(CCCC)/C(=C/C(=O)OC)C(=O)OC`
20.1

// lookup growth inhibition for `CCOC(=O)c1cnc2cc3c(cc2c1Nc1cccc(C)c1C)OCO3`
-9.9

What measured growth inhibition goes with `O=C(NC(COC(=O)c1ccccc1)COC(=O)c1ccccc1)c1ccccc1` ?
29.5

growth inhibition lookup needed for `CCN(CC)C(=O)c1ccc(C)c(N=NN(C)C)c1` , thanks.
-5.7

Can you share its growth inhibition? I mean this molecule: `CCOC(=O)c1nc2ccccc2nc1Nc1ccc(F)cc1`
-2.35

Fill in: growth inhibition of `CCc1c(C)nc2[nH]ncn2c1=O` is ___
10.8

Any idea what growth inhibition was measured for `C/C(=N/NC(=O)c1ccncc1)C(F)(F)F` ?
-29.8

Reported growth inhibition for `O=C(Cc1ccccc1)c1ccc(N2CCOCC2)cc1` : what is it?
21.5

Looking for the measured growth inhibition of `O=C1/C(=C/c2cccc3ccccc23)CCc2ccc([N+](=O)[O-])cc21` , can you help?
-34.5

Any idea what its growth inhibition is? The molecule is C=CCOCC(CCl)OC(=O)C(C)C (stereo unspecified)
-4.95

Please report the recorded growth inhibition for `C=CCCCCCCCCC(N)=O` .
-12.6

GET /values?readout=growth inhibition&item= `CCOC(=O)Cc1nnc2n(-c3ccccc3)c(=O)c3ccccc3n12`
-23.6

Recorded growth inhibition of `Cc1ccnc(NC(=O)Nc2ccc(C)cc2[N+](=O)[O-])c1` , please.
18.4

Find the recorded growth inhibition belonging to `OCc1ccc(F)cc1` and report it.
-6.35

What value of measured growth inhibition is listed for COc1cccc2c1C(=O)c1c(O)c3c(c(O)c1C2=O)CC(O)(C(C)=O)CC3OC1CC(NC(=O)C(CCCCN)NC(=O)C(N)CCN)C(O)C(C)O1 (stereo unspecified) ?
9.1

Field request: growth inhibition | item: `CCOC(=O)c1ncc(Cl)cc1NC(=O)CC(=O)Nc1cc(Cl)cnc1C(=O)OCC`
59.8

Query: growth inhibition; subject: `Cn1c(=O)cc2n(C)c3ccccc3n2c1=O`
33.1

Sample `CC(C)OC(=O)Oc1ccc(Cl)cc1Cl` — what was its growth inhibition?
6.2

Using the record for CC(C)C(C(=O)O)N(C)C(=O)c1cnc2ccccc2n1 (stereo unspecified) , report its growth inhibition.
9.1

Any idea what its growth inhibition is? The molecule is `CCCCCCCCCCCCCCCCCC(=O)CCCCCCCCCCCCCCCCC`
-17.3

Need growth inhibition of `O=C(Nc1ccc(Cl)c(Cl)c1)c1ccc(Cl)cc1` , thanks.
2

Item `CSc1ccccc1N1C(=O)CSC1=S` has what recorded growth inhibition?
-7.8

Bench note: what growth inhibition did `CCOCCC(=N)OCC` show?
11.2

Fill in: growth inhibition of `CCOC(=O)C(=CNc1cccc(Cl)c1)C(=O)OCC` is ___
-2.8

Which growth inhibition value is on record for `CCCc1cc(C(=O)N/N=C/c2ccc([N+](=O)[O-])cc2)c2ccccc2n1` ?
-28.3

###

Would you kindly list growth inhibition for each of these molecules?
# assay explanation: NCI Yeast Anticancer Drug Screen. Data for the cln2 rad14 strain (AID 165);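 further: 0% = growth equal to vehicle treated cultures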
# test settings: S. cerevisiae cln2 rad14 strain, at 50.0 µM, active compounds read high
The panel holds about 79,000 compounds, 15% with a hit somewhere; the sample as a whole holds those more often.
Respond with the bare value in %.

Fill in: growth inhibition of `CCOC(=O)c1nc2ccccc2nc1Nc1ccc(F)cc1` is ___
1.05

What measured growth inhibition goes with `COc1cc(C=Nc2ccc(C)c(Cl)c2)ccc1OC(=O)c1ccccc1` ?
-12.8

Given the molecule `O=C(Oc1cccc2ccccc12)c1cccnc1` , what is its reported growth inhibition?
-38

What value of growth inhibition has been recorded for this entry: C=CCC(C(=O)NC(N)=O)c1ccccc1 (configuration not stated)
19.5

Suppose we examine the molecule `S=C(NCCS)Nc1ccccc1` ; what growth inhibition value has been reported?
-46.6

So what does the record say about growth inhibition for `Nc1cc(=O)[nH]c(=S)n1-c1ccccc1` ?
-16.1

May I ask what growth inhibition has been recorded for `O=C(O)c1[nH]ncc1[N+](=O)[O-]` ?
11.3

###

# assay explanation: NCI Yeast Anticancer Drug Screen. Data for the mec2-1 strain (AID 157)
# test settings: S. cerevisiae mec2-1 strain, at 50.0 µM, active compounds read high
Compounds without any hit were thinned out: in the full panel of roughly 79,000, 15% have a hit.
For each entry below, report its growth inhibition value.
Dear colleague, please return just the value in %, with no unit written.

Can you share its growth inhibition? I mean this molecule: `Cn1cnc2c(=S)nc[nH]c21`
-10

Which growth inhibition is listed for `Cc1ccc(C(=O)C[N+]2(C)CCOCC2)cc1` ?
-7.5

Record request: growth inhibition value, item COc1ccc(/C(=N\NC(=O)NN)C(c2ccc(OC)cc2)C2(O)C(=O)Nc3c(Cl)cc(Cl)cc32)cc1 (centres undefined)
-7.75

Fill in the blank: the reported growth inhibition of `Nc1ccc(C(=O)CC(=O)c2cccc([N+](=O)[O-])c2)cc1` is ____.
20.4

# input molecule: `CCCc1nc2ccccc2c(=O)n1/N=C/c1ccc(Cl)cc1` ; wanted: its growth inhibition
7.3

Form field: reported growth inhibition of `Cc1cccc(C(=O)OC2CCCCC2)c1`
1.2

I'd like to know its growth inhibition. The molecule in question is `CCOC(=O)c1c(/C=N\Nc2ccccc2)nc2ccccc2c1-c1ccccc1`
0.6

What value of measured growth inhibition is listed for Cc1ccc(S(=O)(=O)OCC23CCC(C4CC42)C2CC23)cc1 (centres undefined) ?
-28.5

For `CSc1ccc(C2=CCCCC2)cc1` , what is its reported growth inhibition?
-1.7

Fill in: growth inhibition of Nc1cccc(CC(N)C(=O)O)c1 (centres undefined) is ___
-5.55

Sample `NC(=O)c1nnsc1N/N=C/c1ccc([N+](=O)[O-])cc1` — what was its growth inhibition?
25.9

GET /values?readout=growth inhibition&item= `CC(=O)C(Cc1cccc([N+](=O)[O-])c1)Cc1cccc([N+](=O)[O-])c1`
-7.8

So what's the measured growth inhibition for this one? `C[N+]1(C)CCC(c2ccccc2)(c2ccccc2)/C(=C2/C(=O)C(c3ccccc3)(c3ccccc3)CC[N+]2(C)C)C1`
-7.9

For the molecule O=C(CC(O)(C(F)(F)F)C(F)(F)F)C(CCCl)C(O)(C(F)(F)F)C(F)(F)F (centres undefined) , what growth inhibition is on record?
18.9
